Reference source: patent US20240216392A1

experiment: Phase 1 multiple-dose study, plasma PK; assay type: in vivo, human; conditions: both sexes, human, plasma, oral, 15 mg, Day 9; Cohort 4A (15 mg BID); read-out: Plasma Tmax, median (minimum, maximum)
property: Tmax (min)

>>> recordednumber("C[C@H]1CN2CCNCc3ccc(C(=O)NCC(F)F)c1c32")
34.2

###

experiment: Phase 1 multiple-dose study, plasma PK; type: in vivo, human; conditions: both sexes, human, plasma, oral, 6 mg, Day 1, single 6 mg dose, Cohorts 2, 3, 4A, 4B; read-out: apparent terminal half-life (converted)
property: half-life

>>> result("C[C@H]1CN2CCNCc3ccc(C(=O)NCC(F)F)c1c32 [Compound 1]")
"3.1 to 3.3 h"
